Reported IC50 values follow for various compounds
testedOn: NRAS G12C (Homo sapiens (Human), UniProt P01111+P62937, G12C)
Sequence (P01111 whole entry G12C): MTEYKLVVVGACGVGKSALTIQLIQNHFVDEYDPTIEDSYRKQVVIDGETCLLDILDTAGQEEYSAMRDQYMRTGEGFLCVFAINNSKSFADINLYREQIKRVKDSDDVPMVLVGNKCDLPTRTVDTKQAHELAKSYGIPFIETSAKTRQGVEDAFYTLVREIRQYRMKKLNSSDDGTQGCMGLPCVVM
Sequence (P62937 whole entry): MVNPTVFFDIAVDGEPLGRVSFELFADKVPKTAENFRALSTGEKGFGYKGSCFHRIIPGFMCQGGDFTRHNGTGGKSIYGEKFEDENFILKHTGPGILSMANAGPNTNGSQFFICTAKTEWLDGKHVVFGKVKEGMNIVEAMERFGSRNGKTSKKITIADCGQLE
experimentDescription: Ras-Raf disruption/FRET/MOA assay (BRAF RBD, Cyclophilin A)
Type: biochemical
appliedConditions: read-out: NRAS G12C FRET data IC50

CCn1c(-c2cnccc2COC)c2c3cc(ccc31)-c1cc(O)cc(c1)C[C@H](NC(=O)[C@H](C(C)C)N(C)c1cnc(N)[nH]c1=O)C(=O)N1CCC[C@H](N1)C(=O)OCC(C)(C)C2 ... 1000 to 10000 nM
CCn1c(-c2cccnc2[C@H](C)OC)c2c3cc(ccc31)-c1csc(n1)C[C@H](NC(=O)[C@H](C(C)C)N(C)C(=O)N1CC(N3CCOCC3)C1)C(=O)N1CCC[C@H](N1)C(=O)OCC(C)(C)C2 ... 10 to 100 nM

# input Item under review: CCn1c(-c2cccnc2[C@H](C)OC)c2c3cc(ccc31)-c1cc(O)cc(c1)C[C@H](NC(=O)C(C)Cc1ccncc1)C(=O)N1CCC[C@H](N1)C(=O)OCC(C)(C)C2 (stereo partly drawn) . Reported IC50?
# output 1000 to 10000 nM

# input Entry under review: CCn1c(-c2cccnc2[C@H](C)OC)c2c3cc(ccc31)-c1csc(n1)C[C@H](NC(=O)[C@H](C(C)C)N(C)C(=O)N1CC(N)C1)C(=O)N1CCC[C@H](N1)C(=O)OCC(C)(C)C2 . Reported IC50?
# output 10 to 100 nM

# input Any idea what IC50 was measured for CCn1c(-c2cnccc2COC)c2c3cc(ccc31)-c1cc(O)cc(c1)C[C@H](NC(=O)[C@H](C(C)C)N(C)C(=O)CNC(=N)N)C(=O)N1CCC[C@H](N1)C(=O)OCC(C)(C)C2 ?
# output 100 to 1000 nM

# input So what does the record say about IC50 for CCn1c(-c2cccnc2[C@H](C)OC)c2c3cc(ccc31)-c1csc(n1)C[C@H](NC(=O)[C@H](C(C)C)N(C)C(=O)N1CC[C@@H]3CN(C)C[C@@H]31)C(=O)N1CCC[C@H](N1)C(=O)OCC(C)(C)C2 ?
# output 1000 to 10000 nM

# input Look up IC50: CCn1c(-c2cnccc2COC)c2c3cc(ccc31)-c1cc(O)cc(c1)C[C@H](NC(=O)[C@H](C(C)C)N(C)C(=O)N1CCOCC1)C(=O)N1CCC[C@H](N1)C(=O)OCC(C)(C)C2
# output 100 to 1000 nM

# input What value of IC50 has been recorded for this entry: CCn1c(-c2cccnc2[C@H](C)OC)c2c3cc(ccc31)-c1csc(n1)C[C@H](NC(=O)[C@H](C(C)C)N(C)C(=O)N1CC3(CN(C)C3)C1)C(=O)N1CCC[C@H](N1)C(=O)OCC(C)(C)C2
# output 10 to 100 nM

# input Look up IC50: CCn1c(-c2cccnc2[C@H](C)OC)c2c3cc(ccc31)-c1cc(cc(S(C)(=O)=O)c1)C[C@H](NC(=O)[C@H](C(C)C)N(C)C(C)=O)C(=O)N1CCC[C@H](N1)C(=O)OCC(C)(C)C2
# output > 10000 nM

====

testedOn: KRAS G13D binding to BRAF RBD (Homo sapiens (Human), UniProt P01116+P62937, G13D)
Sequence (P01116 other isoform, or with tags, fused parts or gaps G13D, one chain of several): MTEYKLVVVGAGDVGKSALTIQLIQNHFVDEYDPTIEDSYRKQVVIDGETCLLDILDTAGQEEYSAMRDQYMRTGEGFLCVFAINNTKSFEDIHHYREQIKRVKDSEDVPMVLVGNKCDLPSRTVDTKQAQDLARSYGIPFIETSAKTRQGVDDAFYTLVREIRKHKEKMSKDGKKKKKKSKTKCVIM
experimentDescription: Ras-Raf disruption/FRET/MOA assay, KRAS G13D
Description: Note—The following protocol describes a procedure for monitoring disruption of K-Ras G12C(GMP-PNP) binding to BRAF^RBD by a compound of the invention. This protocol may also be executed substituting other Ras proteins or nucleotides. […]
pIC50: −log10 of the molar value.
valueKind: pIC50

C=CC(=O)N(C)CC1CCN(C(=O)N(C)[C@H](C(=O)N[C@H]2Cc3nc(cs3)-c3ccc4c(c3)c(c(-c3cccnc3[C@H](C)OC)n4CC)CC(C)(C)COC(=O)[C@@H]3CCCN(N3)C2=O)C(C)C)CC1 (atropisomer, axis not shown) ... 6.00 to 7.00
CCn1c(-c2cccnc2[C@H](C)OC)c2c3cc(ccc31)-c1csc(n1)C[C@H](NC(=O)[C@H](C(C)C)N(C)C(=O)C1CCN(C(=O)/C=C/CN(C)C)C3(CC3)C1)C(=O)N1CCC[C@H](N1)C(=O)OCC(C)(C)C2 (some centres unmarked) ... 6.00 to 7.00
CCn1c(-c2cccnc2COC)c2c3cc(ccc31)-c1cc(C)cc(c1)C[C@H](NC(=O)[C@@H](C(C)C)N(C)C(=O)[C@H]1CCN(C(=O)C#CCN(C)C)C1)C(=O)N1CCC[C@H](N1)C(=O)OCC(C)(C)C2 ... 5.00 to 6.00
CCn1c(-c2cccnc2[C@H](C)OC)c2c3cc(ccc31)N1CCO[C@@H](C[C@H](NC(=O)[C@H](C(C)C)N(C)C(=O)[C@@]3(F)CCN(C(=O)C#CC(C)(C)N4CCC4)C3)C(=O)N3CCC[C@H](N3)C(=O)OCC(C)(C)C2)C1 ... 5.00 to 6.00
CCn1c(-c2cccnc2[C@H](C)OC)c2c3cc(ccc31)-c1cccc(c1)C[C@H](NC(=O)[C@H](C(C)C)N(C)C(=O)[C@H]1CCN(C(=O)C#C[C@@H]3CC(F)(F)CN3C)C1)C(=O)N1CCC[C@H](N1)C(=O)OCC(C)(C)C2 ... < 5.00

# input Tell me the measured pIC50 of CCn1c(-c2cccnc2[C@H](C)OC)c2c3cc(ccc31)-c1csc(n1)C[C@H](NC(=O)C1(COC3CN(C(=O)C#CC(C)(C)N4CCC4)C3)CC1)C(=O)N1CCC[C@H](N1)C(=O)OCC(C)(C)C2 , please.
# output < 5.00

# input Please report the recorded pIC50 for C=CC(=O)N1CC[C@H](C(=O)N(C)[C@H](C(=O)N[C@H]2Cc3cc(O)cc(c3)-c3ccc4c(c3)c(c(-c3cccnc3COC)n4CC)CC(C)(C)COC(=O)[C@@H]3CCCN(N3)C2=O)C(C)C)C1 .
# output < 5.00

# input Looking for the measured pIC50 of CC#CC(=O)N1CC[C@H](C(=O)N(C)[C@H](C(=O)N[C@H]2Cc3cc(O)cc(c3)-c3ccc4c(c3)c(c(-c3cncnc3)n4CC)CC(C)(C)COC(=O)[C@@H]3CCCN(N3)C2=O)C(C)C)C1 , can you help?
# output < 5.00

====

pIC50 for assorted molecules
testedOn: KRAS G13C (Homo sapiens (Human), UniProt P01116+P62937, G13C)
Sequence (P01116 other isoform, or with tags, fused parts or gaps G13C): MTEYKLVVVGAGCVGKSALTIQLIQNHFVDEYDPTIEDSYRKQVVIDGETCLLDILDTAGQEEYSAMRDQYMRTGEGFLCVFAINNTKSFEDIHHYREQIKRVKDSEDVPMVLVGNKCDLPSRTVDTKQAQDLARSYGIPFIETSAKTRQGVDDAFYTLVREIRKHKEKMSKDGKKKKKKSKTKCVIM
Sequence (P62937 whole entry): as the sequence (P62937 whole entry) above
experimentDescription: Ras-Raf disruption/FRET/MOA assay (BRAF RBD, Cyclophilin A)
Assay type: biochemical
appliedConditions: read-out: KRAS G13C FRET IC50
pIC50: −log10 of the molar value.

CCn1c(-c2cccnc2[C@H](C)OC)c2c3cc(ccc31)-c1csc(n1)C[C@H](NC(=O)[C@H](C(C)C)N(C)C(=O)N1CCN(C)[C@@H](c3ccccc3)C1)C(=O)N1CCC[C@H](N1)C(=O)OCC(C)(C)C2 ... 6.00 to 7.00
CCn1c(-c2cccnc2[C@H](C)OC)c2c3cc(ccc31)-c1cccc(c1)C[C@H](NC(=O)[C@H](C(C)C)N(C)C(=O)[C@H]1CCN(C)C1)C(=O)N1CCC[C@H](N1)C(=O)OCC(C)(C)C2 ... 6.00 to 7.00
CCn1c(-c2cccnc2[C@H](C)OC)c2c3cc(ccc31)-c1csc(n1)C[C@H](NC(=O)[C@H](C(C)C)N(C)C(=O)N1CC(O)(CN(C)C)C1)C(=O)N1CCC[C@H](N1)C(=O)OCC(C)(C)C2 ... 6.00 to 7.00
CCn1c(-c2cccnc2[C@H](C)OC)c2c3cc(ccc31)-c1cc(O)cc(c1)C[C@H](NC(=O)[C@H](C(C)C)N(C)C(=O)[C@H]1CCN(C(=O)CCc3ccccc3)C1)C(=O)N1CCC[C@H](N1)C(=O)OCC(C)(C)C2 ... 7.00 to 8.00
CCn1c(-c2cccnc2[C@H](C)OC)c2c3cc(ccc31)-c1csc(n1)C[C@H](NC(=O)[C@H](C(C)C)N(C)C(=O)N1CCC13CCS(=O)(=O)CC3)C(=O)N1CCC[C@H](N1)C(=O)OCC(C)(C)C2 ... 6.00 to 7.00

# input If you can, please state the reported pIC50 value of CCn1c(-c2cccnc2[C@H](C)OC)c2c3cc(ccc31)-c1csc(n1)C[C@H](NC(=O)[C@H](C(C)C)N(C)C(=O)N1CC3(CC(N(C)C4COC4)C3)C1)C(=O)N1CCC[C@H](N1)C(=O)OCC(C)(C)C2 .
# output 6.00 to 7.00

# input What value of pIC50 has been reported for the following molecule? CCn1c(-c2cccnc2[C@H](C)OC)c2c3cc(ccc31)-c1cc(O)cc(c1)C[C@H](NC(=O)[C@H](C(C)C)N(C)C(=O)[C@H]1CC1(C)C)C(=O)N1CCC[C@H](N1)C(=O)OCC(C)(C)C2
# output 6.00 to 7.00

# input pIC50 for CCn1c(-c2cccnc2[C@H](C)OC)c2c3cc(ccc31)-c1cc(O)cc(c1)C[C@H](NC(=O)[C@H](C(C)C)N1CNCC1=O)C(=O)N1CCC[C@H](N1)C(=O)OCC(C)(C)C2 ?
# output 6.00 to 7.00

# input Could you tell me which pIC50 is on file for CCn1c(-c2cccnc2[C@H](C)OC)c2c3cc(ccc31)-c1cc(O)cc(c1)C[C@H](NC(=O)[C@H](C(C)C)N(C)C(=O)[C@@H]1CCCC[C@@H]1N)C(=O)N1CCC[C@H](N1)C(=O)OCC(C)(C)C2 ?
# output 7.00 to 8.00

# input What value of pIC50 has been reported for the following molecule? CCn1c(-c2cccnc2[C@H](C)OC)c2c3cc(ccc31)-c1csc(n1)C[C@H](NC(=O)[C@H](C(C)C)N(C)C(=O)N1CCCC13CN(C)C3)C(=O)N1CCC[C@H](N1)C(=O)OCC(C)(C)C2
# output 6.00 to 7.00

# input Quick check: pIC50 of CCn1c(-c2cccnc2[C@H](C)OC)c2c3cc(ccc31)-c1csc(n1)[C@@H](OCC1CCN(C)CC1)[C@H](NC(=O)[C@H]1C[C@@H]1C)C(=O)N1CCC[C@H](N1)C(=O)OCC(C)(C)C2 ?
# output 6.00 to 7.00

# input Look up pIC50 for this molecule: CCn1c(-c2cccnc2[C@H](C)OC)c2c3cc(ccc31)-c1cc(O)cc(c1)C[C@H](NC(=O)C13CCCC1C3(F)F)C(=O)N1CCC[C@H](N1)C(=O)OCC(C)(C)C2 (stereo partly drawn)
# output 6.00 to 7.00

# input Entry CCn1c(-c2cccnc2[C@H](C)OC)c2c3cc(ccc31)-c1cc(O)cc(c1)C[C@H](NC(=O)[C@H](C(C)C)N(C)C(=O)C1CNCCO1)C(=O)N1CCC[C@H](N1)C(=O)OCC(C)(C)C2 (stereo partly drawn) has what pIC50?
# output 7.00 to 8.00

# input Value lookup for pIC50; key = CCn1c(-c2cccnc2[C@H](C)OC)c2c3cc(ccc31)-c1cc(O)cc(c1)C[C@H](NC(=O)[C@H](C(C)C)N(C)C(=O)C1Cc3nccn3C1)C(=O)N1CCC[C@H](N1)C(=O)OCC(C)(C)C2 (stereo partly drawn)
# output 7.00 to 8.00

# input For CCn1c(-c2cccnc2[C@H](C)OC)c2c3cc(ccc31)-c1csc(n1)C[C@H](NC(=O)[C@H](C(C)C)N(C)C(=O)N(C)C[C@H]1CCN1C)C(=O)N1CCC[C@H](N1)C(=O)OCC(C)(C)C2 , what is its reported pIC50?
# output 6.00 to 7.00

# input Need pIC50, item CCn1c(-c2cnccc2COC)c2c3cc(ccc31)-c1cc(O)cc(c1)C[C@H](NC(=O)[C@H](C(C)C)N(C)c1nccs1)C(=O)N1CCC[C@H](N1)C(=O)OCC(C)(C)C2
# output 6.00 to 7.00

# input State the recorded pIC50 for this entry: CCn1c(-c2cccnc2[C@H](C)OC)c2c3cc(ccc31)-c1cc(O)cc(c1)C[C@H](NC(=O)[C@H]1C[C@@H]1C)C(=O)N1CCC[C@H](N1)C(=O)OCC(C)(C)C2
# output 6.00 to 7.00

# input Looking for the measured pIC50 of CCn1c(-c2cccnc2[C@H](C)OC)c2c3cc(ccc31)-c1csc(n1)C[C@H](NC(=O)[C@H](C(C)C)N(C)C(=O)N1CCCC[C@H](N(C)C)C1)C(=O)N1CCC[C@H](N1)C(=O)OCC(C)(C)C2 , can you help?
# output 6.00 to 7.00
